Biological target: T1, human PACAP27 (human, C-terminal leucine is amidated; 125I-labelled in Example 10)
T1 peptide: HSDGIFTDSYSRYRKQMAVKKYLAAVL
Assay: SPR, Ab immobilised
Recorded koff, one value per entry.
endpoint label: koff (s⁻¹)

>>> measured_number("anti-PACAP antibody Ab3 (antibody, human IgG1, kappa, N297A, V domains shown, full-length rabbit/human chimeric antibody) VH: QEQLVESGGGLVQPEGSLTLTCTASGFSFSSSDYMCWVRQAPGKGLEWIGCIDAGSSGDTYFASWAKGRFTISKTSSTTVTLQMTSLTAADTATYFCARHLYGSITFAFGLWGQGTLVTVSS VL: AAVLTQTPSPVSAAVGGTVTINCQASQSIGSDLAWYQQKPGQPPKLLIYDASTLASGVPSRFSGSGSGTQFTLTISGVQCDDAATYYCQGTYYSSGWYTAFGGGTEVVVKR")
0.00014
>>> measured_number("anti-PACAP antibody Ab8 (antibody, human IgG1, kappa, N297A, V domains shown, full-length rabbit/human chimeric antibody) VH: LEQSGGGAEGGLVKPGGSLELCCKASGFSLTTSHWMCWVRQAPGKGLNWIGCISAGSGDADYATWVDAQFTLSRDIDQNTGCLQLNSLTPADTAMYYCTINFELWGQGTLVTVSS VL: AQVLTQTPSSVSAAVGGTVTINCQSSPSVYSSYLSWFQQKPGQPPKFLIYEASKLASGVPSRFSGSGSGTQFTLTISGVQCSDAATYYCLGAYDCGRTDCHAFGGGTEVVVKR")
"6e-05"
>>> measured_number("anti-PACAP antibody Ab6 (antibody, human IgG1, kappa, N297A, V domains shown, full-length rabbit/human chimeric antibody) VH: LEQSGGGAEGGLVKPGGSLELCCKASGFSLSSTYWMCWVRQAPGKGLEWIGCIYTGSGSTDYASWVNGQFTLSRDIDQSTGCLQLNSLTVADTAMYYCTKNFDLWGPGTLVTVSS VL: AQVLTQTPSSVSAAVGGTVTINCQSSPSVYSNNYLSWFQQKPGQPPKGLIADASTLASGVPSRFKGSGSGTQFTLTISGVQCDDAAAYYCLGYYDCGSTDCHAFGGGTEVVVKR")
"8.2e-05"
>>> measured_number("anti-PACAP antibody Ab5.H (antibody, human IgG1, kappa, N297A, V domains shown, humanized form of Ab5, full length) VH: EVQLVESGGGLVQPGGSLRLSCAASGFSLSSYAMIWVRQAPGKGLEWVGIIYDNGDTYYASSAKGRFTISRDNSKNTVYLQMNSLRAEDTAVYFCAREPGSTTQNDLWGQGTLVTVSS VL: DVQMTQSPSTLSASVGDRVTITCQASENIYNSLLWYQQKPGKAPKLLIYRASTLASGVPSRFSGSGSGTEFTLTISSLQPDDFATYYCQNYYNIWTNGAAFGGGTKVEIKR")
0.00013
>>> measured_number("anti-PACAP antibody Ab14 (antibody, human IgG1, kappa, N297A, V domains shown, full-length rabbit/human chimeric antibody) VH: QSVEASGGRLVTPGTPLTLTCTVSGFSLSSAAMNWVRQAPGKGLEWIGFIEYSKNIVYASWAKGRFTISKVSSTTVDLKMTSPTTEDTATYFCARGGGEFFIWGQGTLVTVSS VL: AQVLTQTPSSVSAAVGGTVTINCQSSQSVYSNNRLSYYQQKPGQPPKLLIYEASSLAYGVPSRFKGSGSGTQFTLTISDLECDDAATYYCAGAYSNSIYSFGGGTEVVVKR")
"2e-05"
>>> measured_number("anti-PACAP antibody Ab9.H (antibody, human IgG1, kappa, N297A, V domains shown, humanized form of Ab9, full length) VH: EVQLVESGGGLVQPGGSLRLSCAASGFTVSRDYWICWVRQAPGKGLEWIGCISAGGGSTDYANWVNGRFTISRDISKNTGYLQMNSLRAEDTAVYYCAGNLEIWGQGTLVTVSS VL: DIQMTQSPSTLSASVGDRVTITCQSSPSIYSGAFLSWYQQKPGKAPKFLIYEASKLASGVPSRFSGSGSGTEFTLTISSLQPDDFATYYCLGFYDCSSVDCHAFGGGTKVEIKR")
"7.7e-05"
>>> measured_number("anti-PACAP antibody Ab4 (antibody, human IgG1, kappa, N297A, V domains shown, full-length rabbit/human chimeric antibody) VH: QSVEESGGRLVTPGTPLTLTCTVSGFSLSSYDMSWVRQAPGKGLEYIGIINTNDDTWYASWVKGRFTISKTSSTTVDLKMTSLTTEDTATYFCARISDAYVFDYAYYFTLWGQGTLVTVSS VL: ALVMTQTPSSVSAAVGGTVTINCLASQNIYNSLAWYQQKPGQPPKLLIYRASTLASGVSSRFKGSGSGTQFTLTISGVECADAATYYCQQGAGADNIGNPFGGGTEVVVKR")
0.0002
>>> measured_number("anti-PACAP antibody Ab22 (antibody, human IgG1, kappa, N297A, V domains shown, full-length rabbit/human chimeric antibody; PACAP38 specific) VH: QEQLVESGGGLVQPEGSLTLTCTASGFDFSSNAMCWVRQAPGKGLEWIGSIYNADGKNYYAIWAKGRFTISRTSSTTVTLQMTSLTAADTATYFCARDFDLWGQGTLVTVSS VL: AAVLTQTPSPVSAAVGGTVTINCQSSQSVYDNDWLAWFQQKPGQPPKLLIYLTSTLASGVPSRFSGSGSGTQFTLTISGVQCDDAATYYCLGGYDEDGDTHVFGGGTEVVVKR")
0.1
